Target: human muscarinic acetylcholine M3 receptor (M3-ACh) (Homo sapiens, UniProt P20309)
Construct: expressed in transfected cells; host or cells: CHO-K1 (Chinese Hamster Ovary) cell membranes
Sequence (P20309 whole entry): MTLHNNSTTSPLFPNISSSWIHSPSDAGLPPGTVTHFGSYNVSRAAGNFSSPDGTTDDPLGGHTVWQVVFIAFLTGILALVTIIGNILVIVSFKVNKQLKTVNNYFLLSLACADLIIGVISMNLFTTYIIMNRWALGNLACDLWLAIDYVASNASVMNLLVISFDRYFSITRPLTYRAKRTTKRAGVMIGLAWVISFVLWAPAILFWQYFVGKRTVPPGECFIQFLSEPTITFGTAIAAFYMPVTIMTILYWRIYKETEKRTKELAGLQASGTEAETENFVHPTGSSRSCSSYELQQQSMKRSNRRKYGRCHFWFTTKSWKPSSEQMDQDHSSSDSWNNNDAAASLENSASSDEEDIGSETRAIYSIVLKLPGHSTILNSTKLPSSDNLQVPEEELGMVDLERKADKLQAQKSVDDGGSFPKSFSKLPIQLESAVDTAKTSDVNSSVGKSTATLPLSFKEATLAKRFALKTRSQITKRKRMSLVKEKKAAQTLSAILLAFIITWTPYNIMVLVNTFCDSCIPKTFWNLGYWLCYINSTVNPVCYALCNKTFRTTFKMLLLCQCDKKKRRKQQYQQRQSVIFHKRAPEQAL
Test: biochemical
Type: binding
Conditions: pIC50 (M3 Binding IC50 classes)
pIC50: −log10 of the molar value.
measurement_type: pIC50

Query block: Field: pIC50 (human muscarinic acetylcholine M3 receptor (M3-ACh) (Homo sapiens, UniProt P20309)). Entry: "C[C@@](C(=O)O[C@H]1C[N+]2(CC(=O)Nc3ccc4[nH]ncc4c3)CCC1CC2)(c1ccccc1)N1CCCCC1"
Result block: 8.00 to 8.70

Query block: Given the entry CC1(C)CN(C(C)(C(=O)O[C@H]2C[N+]3(CCCOc4ccccc4)CCC2CC3)c2ccc(Cl)cc2)C1 (single isomer, unassigned) [Example 46] , what pIC50 was observed with human muscarinic acetylcholine M3 receptor (M3-ACh) (Homo sapiens, UniProt P20309)?
Result block: < 8.00

Query block: Under human muscarinic acetylcholine M3 receptor (M3-ACh) (Homo sapiens, UniProt P20309): pIC50 value of "Cc1nc(-c2ccccc2)c(NC(=O)C[N+]23CCC(CC2)[C@@H](OC(=O)[C@](C)(c2ccccc2)N2CCCCC2)C3)s1" ?
Result block: 8.00 to 8.70

Query block: Which pIC50 is reported with human muscarinic acetylcholine M3 receptor (M3-ACh) (Homo sapiens, UniProt P20309) for this entry: CC(C(=O)O[C@H]1C[N+]2(CCc3cccc(Cl)c3)CCC1CC2)(c1ccccc1)N1CCOCC1 (single isomer, unassigned) [Example 80] ?
Result block: 8.00 to 8.70

Query block: Param readout= pIC50; system= human muscarinic acetylcholine M3 receptor (M3-ACh) (Homo sapiens, UniProt P20309); entry= "Cc1ccc(C(=O)C[N+]23CCC(CC2)[C@@H](OC(=O)[C@](C)(c2ccccc2)N2CCCCC2)C3)cc1" ; returns value.
Result block: > 8.70

Query block: State its pIC50 on human muscarinic acetylcholine M3 receptor (M3-ACh) (Homo sapiens, UniProt P20309): CC(C(=O)O[C@H]1C[N+]2(CC(=O)Nc3cccc(F)c3)CCC1CC2)(c1ccccc1)N1CCSCC1 (single isomer, unassigned)
Result block: > 8.70

Hey, just so you know, these numbers are from patent US20100113510A1.
